# Test system: Laryngeal epithelioma cell line
# Assay Notes: In vitro antiviral activity against Para 3 virus in human laryngeal epithelioma cell line / 320 toxic level
# Format: functional
Items are presented alongside their recorded Virus rating.
Quantity: Virus rating

compound=Nc1ncnc2c(N[C@@H]3O[C@H](CO)[C@@H](O)[C@@H]3O)ncnc12 reported_result=1.5
compound="OC[C@H]1OC(n2cnc3c(I)ncnc32)[C@H](O)[C@@H]1O (some centres undefined)" reported_result=0.6
compound="N#Cc1ncnc2c1ncn2C1O[C@H](CO)[C@@H](O)[C@H]1O (some centres undefined)" reported_result=1.2
compound="NC(=O)c1ncnc2c1ncn2C1O[C@H](CO)[C@@H](O)[C@H]1O (some centres undefined)" reported_result=1.4
